assay: Plasma Diazoxide level by HPLC/UV; format: in vivo; conditions: male, human, at six months, mean daily dose 600±54 mg (5.7±0.5 mg/kg), oral, three times a day, read-out: plasma DZX level
readout_kind: concentration at 150 min (ng/mL)
Please state the figure in ng/mL; there is no need to write the unit.

**Query** So what does the record say about concentration at 150 min for CC1=NS(=O)(=O)c2cc(Cl)ccc2N1 [Diazoxide] ?
**Result** 50000
